Test system: human neuroblastoma MC-65 cells
TEST_DETAILS: cells
CONDITION_CONTEXT: Homo sapiens, MC65, 48 h, read-out: TH (threshold protective concentration)
A collection of compounds and their measured minimal effective concentration

Below are worked cases with known answers.
- Cc1cc(=O)c(O)c(CN(C)C)n1CC(F)F: 0.1 µM
- CN(C)Cc1cc(=O)c(O)c(CC(F)(F)F)n1C: 0.1 µM
- O=c1ccn(CC(F)(F)F)c(CN2CCOCC2)c1O: 1 µM

What does the record list as minimal effective concentration for Cc1cc(=O)c(O)c(C(N2CCN(c3ccccc3)CC2)C(F)(F)F)n1C (centres unmarked) ? 1 µM

What does the record list as minimal effective concentration for "Cc1c(O)c(=O)ccn1CC(F)F" ? 0.1 µM

What does the record list as minimal effective concentration for Cc1c(O)c(=O)c(C(n2ccnc2)C(F)(F)F)cn1C (centres unmarked) ? 1 µM

What does the record list as minimal effective concentration for C[C@H](NCc1cc(=O)c(O)c(C(O)C(F)(F)F)n1C)C(=O)O (some centres unmarked) ? 0.1 µM

What does the record list as minimal effective concentration for C=CCNC(c1c(O)c(=O)ccn1C)C(F)(F)F (centres unmarked) ? 0.1 µM

What does the record list as minimal effective concentration for "CN(C)c1c(O)c(=O)cc(CC(F)(F)F)n1C" ? 1 µM

What does the record list as minimal effective concentration for C#CCN(C)C(c1c(O)c(=O)ccn1C)C(F)(F)F (centres unmarked) ? 1 µM

What does the record list as minimal effective concentration for Cc1[nH]cc(C(N2CCOCC2)C(F)(F)F)c(=O)c1O (centres unmarked) ? 1 µM
